Numbers sourced from paper PMC7125101.

Test system: DLBCL2
Test: cells
Set-up: species or system human tumour lines, HEK293T, mouse MEF; Cell viability after 72 h, CellTiter-Glo luminescent assay
Details: Homo sapiens, HEK-293T, 72 h; read-out: HOIPIN-1 (IC50)
MEASURED_ENDPOINT: IC50 (µM)
Give the number; µM is assumed, so skip it.

Prompt: I would be grateful if you could share the reported IC50 for COc1ccccc1C(=O)/C=C/c1ccccc1C(=O)O .
Response: 11.1

* * *

Test system: Jurkat
Assay: cells
Set-up: species or system human tumour lines, HEK293T, mouse MEF; Cell viability after 72 h, CellTiter-Glo luminescent assay
Conditions: Homo sapiens, Jurkat, 72 h; read-out: HOIPIN-1 (IC50)
MEASURED_ENDPOINT: IC50 (µM)
Report the value in µM with no unit label.

Prompt: Write down the reported IC50 of COc1ccccc1C(=O)/C=C/c1ccccc1C(=O)O , test system: Jurkat.
Response: 20.6
